Please provide measured cytotoxicity at 70.5 h for the entries that follow.
- EXPERIMENT DESCRIPTION: Human HepG2 cell viability assay in 384 well format
- Format: toxicity, cell-based
- Parameters: dose 125 nL, time 70.5 hour; concentration not given beside the values
- DETAILS: HepG2 cells, read-out: Inhibition
One number for each entry, in %.

Field: example entries. Status: answers known.
| COMPOUND | ASSAY VALUE |
| --- | --- |
| O=C(O)C1(n2cccn2)CCN(Cc2nc(-c3ccccc3)no2)CC1 | -9.66 |
| CSc1nccc(N2CCC(NCc3ccc4c(c3)OCO4)CC2)n1 | 4.69 |
| O=C(Nc1cccnn1)NC(CCCO)c1ccccc1 (configuration not stated) | -14.5 |
| CS(=O)(=O)Cc1ccc(C(=O)N2CCCC(n3cncn3)C2)o1 (configuration not stated) | 1.66 |
| CCCS(=O)(=O)NCc1cccnc1Oc1ccc(C)nc1 | -0.632 |
| CNC(=O)CCc1cc(C2CCCN2C(=O)CO)nc(C)n1 (configuration not stated) | -5.79 |

Can you give me cytotoxicity at 70.5 h for all of these, one by one?
1. Cn1cc(S(=O)(=O)NCC2CCN(C(=O)c3ccoc3)CC2)cn1
2. Cc1cc(CN(C)C(=O)NC2CCN(Cc3ccccn3)CC2)no1
3. O[C@H]1COCCN(Cc2cccc(C(F)(F)F)c2)C1
4. CS(=O)(=O)NCCNC(=O)Cc1ccc(Br)s1
5. CN1CCCN(C(=O)NCc2cc(Br)cs2)CC1
6. Cc1cc(CN(C)C(=O)c2ccc(F)c(C(F)(F)F)c2)no1

Data returned:
1. -2.52
2. 1.36
3. -9.83
4. -3.17
5. -1.99
6. -1.4

Data provenance is ChEMBL document CHEMBL3507680.
